# Study target: T1, G9a and GLP (Homo sapiens, UniProt Q96KQ7+Q9H9B1)
# T1 sequence (Q96KQ7 2-1210 limits assumed): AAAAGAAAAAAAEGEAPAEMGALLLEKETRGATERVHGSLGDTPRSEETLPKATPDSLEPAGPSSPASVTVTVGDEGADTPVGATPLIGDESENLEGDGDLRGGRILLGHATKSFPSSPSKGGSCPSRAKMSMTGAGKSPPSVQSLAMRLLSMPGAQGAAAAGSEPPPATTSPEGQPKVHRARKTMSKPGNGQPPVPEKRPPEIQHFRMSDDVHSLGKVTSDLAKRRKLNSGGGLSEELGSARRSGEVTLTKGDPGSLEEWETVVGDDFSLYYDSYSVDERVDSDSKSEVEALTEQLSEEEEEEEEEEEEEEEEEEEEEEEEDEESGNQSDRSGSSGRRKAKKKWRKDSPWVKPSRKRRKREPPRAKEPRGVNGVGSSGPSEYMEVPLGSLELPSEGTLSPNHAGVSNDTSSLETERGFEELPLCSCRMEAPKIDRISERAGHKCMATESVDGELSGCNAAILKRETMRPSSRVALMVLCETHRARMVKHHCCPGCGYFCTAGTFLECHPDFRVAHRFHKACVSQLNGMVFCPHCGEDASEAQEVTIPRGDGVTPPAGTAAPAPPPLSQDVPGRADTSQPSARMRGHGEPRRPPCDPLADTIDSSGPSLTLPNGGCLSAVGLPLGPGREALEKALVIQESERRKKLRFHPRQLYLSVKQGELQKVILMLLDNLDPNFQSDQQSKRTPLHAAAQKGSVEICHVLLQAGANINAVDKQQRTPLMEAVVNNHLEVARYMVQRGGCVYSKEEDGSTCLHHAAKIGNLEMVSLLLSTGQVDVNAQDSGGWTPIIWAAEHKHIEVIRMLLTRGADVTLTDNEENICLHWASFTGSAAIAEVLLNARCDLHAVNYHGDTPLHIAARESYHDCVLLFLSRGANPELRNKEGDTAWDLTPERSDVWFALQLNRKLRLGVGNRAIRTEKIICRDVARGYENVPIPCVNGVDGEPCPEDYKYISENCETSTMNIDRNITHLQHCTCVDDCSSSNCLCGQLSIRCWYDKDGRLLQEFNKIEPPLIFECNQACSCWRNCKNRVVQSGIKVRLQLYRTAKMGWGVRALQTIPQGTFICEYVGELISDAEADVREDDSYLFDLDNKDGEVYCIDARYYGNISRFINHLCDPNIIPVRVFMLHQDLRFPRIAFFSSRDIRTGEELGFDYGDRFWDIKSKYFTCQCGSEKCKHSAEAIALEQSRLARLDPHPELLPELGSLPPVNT
# T1 sequence (Q9H9B1 2-1298 limits assumed): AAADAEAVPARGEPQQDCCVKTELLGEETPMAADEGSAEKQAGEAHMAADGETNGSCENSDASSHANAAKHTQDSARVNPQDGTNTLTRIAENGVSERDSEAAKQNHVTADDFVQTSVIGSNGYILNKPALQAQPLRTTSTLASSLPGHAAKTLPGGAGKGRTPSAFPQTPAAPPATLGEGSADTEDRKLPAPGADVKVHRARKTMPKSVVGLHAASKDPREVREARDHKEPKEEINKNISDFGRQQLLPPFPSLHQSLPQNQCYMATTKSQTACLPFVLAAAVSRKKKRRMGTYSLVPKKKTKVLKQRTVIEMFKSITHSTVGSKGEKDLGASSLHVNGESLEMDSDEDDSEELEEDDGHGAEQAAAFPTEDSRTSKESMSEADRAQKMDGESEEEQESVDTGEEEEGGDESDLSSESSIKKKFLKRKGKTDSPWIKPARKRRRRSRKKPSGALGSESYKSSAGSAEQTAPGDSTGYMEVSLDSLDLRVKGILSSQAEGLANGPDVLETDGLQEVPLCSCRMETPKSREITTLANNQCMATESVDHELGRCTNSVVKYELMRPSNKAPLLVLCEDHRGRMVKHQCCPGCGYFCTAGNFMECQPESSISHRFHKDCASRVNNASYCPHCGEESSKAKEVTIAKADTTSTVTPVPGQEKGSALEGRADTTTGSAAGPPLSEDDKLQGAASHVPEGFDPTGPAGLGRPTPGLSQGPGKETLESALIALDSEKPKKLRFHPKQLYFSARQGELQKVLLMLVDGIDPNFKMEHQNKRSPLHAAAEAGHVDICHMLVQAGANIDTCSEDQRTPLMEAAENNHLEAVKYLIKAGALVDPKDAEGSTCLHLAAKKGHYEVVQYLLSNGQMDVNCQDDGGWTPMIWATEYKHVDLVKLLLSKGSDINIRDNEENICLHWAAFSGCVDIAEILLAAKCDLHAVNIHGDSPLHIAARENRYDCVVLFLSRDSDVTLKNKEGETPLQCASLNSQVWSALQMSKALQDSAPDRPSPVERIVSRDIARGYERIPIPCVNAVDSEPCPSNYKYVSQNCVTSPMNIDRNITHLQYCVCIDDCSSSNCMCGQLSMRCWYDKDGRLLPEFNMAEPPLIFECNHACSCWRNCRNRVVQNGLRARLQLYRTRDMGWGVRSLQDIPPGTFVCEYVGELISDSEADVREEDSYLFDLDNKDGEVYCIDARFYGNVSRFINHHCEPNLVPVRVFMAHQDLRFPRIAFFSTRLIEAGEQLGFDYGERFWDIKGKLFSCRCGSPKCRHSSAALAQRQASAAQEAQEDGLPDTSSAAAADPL
# Experiment notes: Triple SILAC pull-down after UNC0638 treatment of 293T cells, DMSO/UNC0638 ratio of protein captured by 3×MBT;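 note: mass spectrometry (Q-Exactive) SILAC quantitation, DMSO/UNC0638 ratio computed after subtracting 3×MBTD355N mutant pull-down background, only proteins with at least twofold 3×MBT over mutant signal considered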
# Assay type: cell-based
# Parameters: endogenous in cells; host or cells: HEK 293T
# Condition label: SILAC ratio DMSO relative to UNC0638, pull-down with 3xMBT; UNC0638 in heavy SILAC media; all values in log base 2
Measured Relative to UNC0638 UNC Heavy of individual entries
Parameter measured: Relative to UNC0638 UNC Heavy (log base 2)

>>> value("DEK (protein, UniProt P35659 2-375, looked up) Protein DEK: SASAPAAEGEGTPTQPASEKEPEMPGPREESEEEEDEDDEEEEEEEKEKSLIVEGKREKKKVERLTMQVSSLQREPFTIAQGKGQKLCEIERIHFFLSKKKTDELRNLHKLLYNRPGTVSSLKKNVGQFSGFPFEKGSVQYKKKEEMLKKFRNAMLKSICEVLDLERSGVNSELVKRILNFLMHPKPSGKPLPKSKKTCSKGSKKERNSSGMARKAKRTKCPEILSDESSSDEDEKKNKEESSDDEDKESEEEPPKKTAKREKPKQKATSKSKKSVKSANVKKADSSTTKKNQNSSKKESESEDSSDDEPLIKKLKKPPTDEELKETIKKLLASANLEEVTMKQICKKVYENYPTYDLTERKDFIKTTVKELIS")
0.10
>>> value("CSRP2 (protein, UniProt Q16527 1-193, looked up) Cysteine and glycine-rich …: MPVWGGGNKCGACGRTVYHAEEVQCDGRSFHRCCFLCMVCRKNLDSTTVAIHDEEIYCKSCYGKKYGPKGYGYGQGAGTLNMDRGERLGIKPESVQPHRPTTNPNTSKFAQKYGGAEKCSRCGDSVYAAEKIIGAGKPWHKNCFRCAKCGKSLESTTLTEKEGEIYCKGCYAKNFGPKGFGYGQGAGALVHAQ")
"−0.58"
